- Test system: corn
- MEASUREMENT DESCRIPTION: Soil treatment test for upland field (Test Example 2): phytotoxicity to corn; also: key: 0: normal growth; 1: little damaged; 2: low damaged; 3: medium damaged; 4: serious damaged; 5: complete killed
- Format: in vivo
- APPLIED CONDITIONS: dose 5 g ai/a; soil treatment before germination; examined after 3 weeks
OBSERVED PROPERTY: Phytotoxicity corn
I'd appreciate a reply containing only the number, no unit.

Consider the worked cases shown below.
MOLECULE: COCC(=Cc1cccc(C(F)(F)F)c1)c1nc2cc(OC(F)(F)F)ccc2o1 [Compound 46]
RESULT VALUE: 1

MOLECULE: CSCC(=Cc1cccc(C(F)(F)F)c1)c1nc2cc(C(F)(F)F)ccc2o1 [Compound 82]
RESULT VALUE: 0

MOLECULE: FC(F)C(F)(F)COCC(=Cc1cccc(C(F)(F)F)c1)c1nc2cc(C(F)(F)F)ccc2o1 [Compound 87]
RESULT VALUE: 0

MOLECULE: CCOCC(=Cc1cccc(C(F)(F)F)c1)c1nc2cc(F)c(F)cc2o1 [Compound 127]
RESULT VALUE: 0

MOLECULE: CCSCC(=Cc1cccc(C(F)(F)F)c1)c1nc2cc(C(F)(F)F)ccc2o1 [Compound 84]
RESULT VALUE: 0

QUERY: Reported Phytotoxicity corn, molecule COCC(=Cc1ccc(F)c(C(F)(F)F)c1)c1nc2cc(F)c(F)cc2o1 [Compound 126] : ____
RESULT: 0

QUERY: Could you tell me which Phytotoxicity corn is on file for COCC(=Cc1cccc(C(F)(F)F)c1)c1nc2cc(Br)ccc2o1 [Compound 39] ?
RESULT: 1

QUERY: Data request, read-out Phytotoxicity corn, for COC/C(=C\c1cccc(C(F)(F)F)c1)c1nc2cc(Cl)ccc2o1 [Compound 3]
RESULT: 1
